Each entry below lists one item and its recorded IC50 value.
# Test system: pERK, Mewo cells
# testName: Phospho-ERK inhibition, AlphaLISA p-ERK 1/2, Mewo
# Assay type: cell-based, human
# reportedConditions: Table D-2; Mewo (NF1 LOF)

N#CC1(c2cccc3c2ncn3-c2nc3c(Nc4c(F)ccc(NS(=O)(=O)c5cccc(Cl)c5Cl)c4F)ncnc3s2)CC1 = 30 to 300 nM

We next turn to a different compound, shown below.
Q: Name the recorded IC50 for `Cc1c(F)cccc1S(=O)(=O)Nc1ccc(F)c(Nc2ncnc3sc(-n4cc(C(=O)N5C6CCC5CN(C)C6)c5ccccc54)nc23)c1F` .
Result: < 30 nM

* * *

# experimentalSystem: CRAF (Homo sapiens)
# Construct: fused on or other part: GST tag (N-terminal according to the vendor's product)
# Sequence (P04049 whole entry Y340E/Y341E, form open, the tested form may be a part): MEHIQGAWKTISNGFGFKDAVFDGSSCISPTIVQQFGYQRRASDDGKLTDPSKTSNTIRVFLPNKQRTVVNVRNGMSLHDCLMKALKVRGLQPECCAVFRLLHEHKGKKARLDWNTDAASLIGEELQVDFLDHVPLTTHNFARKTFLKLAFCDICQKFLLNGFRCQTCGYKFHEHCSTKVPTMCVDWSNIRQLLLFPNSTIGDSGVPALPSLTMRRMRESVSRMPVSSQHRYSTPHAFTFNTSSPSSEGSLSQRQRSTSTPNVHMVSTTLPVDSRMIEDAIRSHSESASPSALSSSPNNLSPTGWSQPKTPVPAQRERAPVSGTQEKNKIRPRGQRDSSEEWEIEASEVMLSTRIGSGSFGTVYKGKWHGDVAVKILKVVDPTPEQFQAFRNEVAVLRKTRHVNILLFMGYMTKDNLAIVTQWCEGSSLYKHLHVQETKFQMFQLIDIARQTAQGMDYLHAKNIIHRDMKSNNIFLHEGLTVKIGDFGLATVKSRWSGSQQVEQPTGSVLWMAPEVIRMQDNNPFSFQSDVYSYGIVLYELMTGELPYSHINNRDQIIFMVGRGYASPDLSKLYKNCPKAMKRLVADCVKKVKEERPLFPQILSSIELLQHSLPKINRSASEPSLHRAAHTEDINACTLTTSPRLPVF
# testName: CRAF kinase activity assay (ADP-Glo)
# Assay type: biochemical
# reportedConditions: Table 3; 10 μM ATP, kinase-dead MEK1 substrate
reportedMetric: IC50

Sample answers from the record:
O=C(c1cn(-c2nc3c(Nc4c(F)ccc(NS(=O)(=O)c5cccc(Cl)c5Cl)c4F)ncnc3s2)c2ccccc12)N1CCC(O)(C(F)(F)F)CC1 [Example 97] = 10 to 50 nM
Cc1c(F)cccc1S(=O)(=O)Nc1ccc(F)c(Nc2ncnc3sc(-n4nc(C(=O)NCc5cccnc5)c5ccccc54)nc23)c1F [Example 24] = 10 to 50 nM
CC1(N)CCN(c2cccc3c2ncn3-c2nc3c(Nc4c(F)ccc(NS(=O)(=O)c5cccc(Cl)c5Cl)c4F)ncnc3s2)CC1 [Example 157] = < 10 nM
O=S(=O)(Nc1ccc(F)c(Nc2ncnc3sc(-n4cc(S(=O)(=O)N5CC(CO)C5)c5ccccc54)nc23)c1F)c1cccc(Cl)c1Cl [Example 74] = < 10 nM
COCCOc1cccc2c1ncn2-c1nc2c(Nc3c(F)ccc(NS(=O)(=O)c4cccc(Cl)c4Cl)c3F)ncnc2s1 [Example 119] = < 10 nM

Q: Query the reported IC50 for CRAF (Homo sapiens); item: COC1(C)CCN(c2cccc3c2ncn3-c2nc3c(Nc4c(F)ccc(NS(=O)(=O)c5cccc(Cl)c5Cl)c4F)ncnc3s2)CC1 [Example 135]
Result: > 50 nM

Q: Query the reported IC50 for CRAF (Homo sapiens); item: Cc1c(F)cccc1S(=O)(=O)Nc1ccc(F)c(Nc2ncnc3sc(-n4nc(C(=O)N(C)Cc5cccnc5)c5ccccc54)nc23)c1F [Example 23]
Result: > 50 nM

Q: Query the reported IC50 for CRAF (Homo sapiens); item: O=S(=O)(Nc1ccc(F)c(Nc2ncnc3sc(-n4cnc5c(N6CCC[C@@H](O)C6)cccc54)nc23)c1F)c1cccc(Cl)c1Cl [Example 148]
Result: 10 to 50 nM

* * *

Each entry below lists one item and its recorded IC50 value.
# experimentalSystem: BRAF (Homo sapiens, UniProt P15056)
# Construct: GST; purchased Millipore Sigma B4062-10UG
# Sequence (P15056 whole entry): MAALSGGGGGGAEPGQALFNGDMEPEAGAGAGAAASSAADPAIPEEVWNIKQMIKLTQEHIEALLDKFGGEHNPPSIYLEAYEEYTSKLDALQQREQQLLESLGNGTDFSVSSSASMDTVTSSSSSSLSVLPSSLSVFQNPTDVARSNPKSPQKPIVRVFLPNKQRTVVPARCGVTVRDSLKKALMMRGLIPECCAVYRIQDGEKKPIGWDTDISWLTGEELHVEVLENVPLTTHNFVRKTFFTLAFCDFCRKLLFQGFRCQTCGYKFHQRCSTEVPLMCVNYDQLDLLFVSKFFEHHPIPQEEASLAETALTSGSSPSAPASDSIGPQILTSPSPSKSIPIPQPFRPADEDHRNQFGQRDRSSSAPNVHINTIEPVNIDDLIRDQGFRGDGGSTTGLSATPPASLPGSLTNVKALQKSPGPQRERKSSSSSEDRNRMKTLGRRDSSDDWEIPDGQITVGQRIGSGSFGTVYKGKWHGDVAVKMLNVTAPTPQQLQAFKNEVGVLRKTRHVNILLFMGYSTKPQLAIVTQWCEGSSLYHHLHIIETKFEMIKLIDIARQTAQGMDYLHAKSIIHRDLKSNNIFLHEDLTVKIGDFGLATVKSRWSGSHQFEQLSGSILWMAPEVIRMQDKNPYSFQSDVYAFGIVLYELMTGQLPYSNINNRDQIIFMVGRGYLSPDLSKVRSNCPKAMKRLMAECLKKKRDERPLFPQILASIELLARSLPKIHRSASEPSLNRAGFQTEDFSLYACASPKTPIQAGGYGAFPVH
# testName: BRAF kinase activity assay (ADP-Glo)
# Assay type: biochemical
# reportedConditions: Table 3; 10 μM ATP, kinase-dead MEK1 substrate

Q: Name the recorded IC50 for COc1cccc2c1ncn2-c1nc2c(Nc3c(F)ccc(NS(=O)(=O)c4cccc(Cl)c4Cl)c3F)ncnc2s1 [Example 99] .
Result: 1 to 10 nM

Q: Name the recorded IC50 for CC1(N)CCN(c2cccc3c2ncn3-c2nc3c(Nc4c(F)ccc(NS(=O)(=O)c5cccc(Cl)c5Cl)c4F)ncnc3s2)CC1 [Example 157] .
Result: < 1 nM

Q: Name the recorded IC50 for CCC1(O)CN(C(=O)c2cn(-c3nc4c(Nc5c(F)ccc(NS(=O)(=O)c6cccc(Cl)c6Cl)c5F)ncnc4s3)c3ccccc23)C1 [Example 95] .
Result: 1 to 10 nM

* * *

# System: HepG2 cells
# testName: Proliferation inhibition, CellTiter-Glo, HepG2
# Type: cell-based, human
# reportedConditions: Homo sapiens, 72 h; Table D-1; HepG2 (NRAS-Q61L), 3 days; read-out: Prolif. (proliferation EC50)
reportedMetric: EC50

Q: Name the recorded EC50 for Cc1ccc2c(Nc3cccc(Cl)c3F)nccc2c1NC(=O)c1csc2c(N)ncnc12 [Belvarafenib, reference compound] .
Result: < 300 nM

* * *

# Tested on: SK-MEL30 cells
# testName: Proliferation inhibition, CellTiter-Glo, SK-MEL30
# Type: cell-based, human
# reportedConditions: Table D-1; SK-MEL30 (NRAS-Q61K), 3 days; read-out: Prolif. (proliferation EC50)
pEC50: −log10 of the molar value.
reportedMetric: pEC50

N#CC1(c2cccc3c2ncn3-c2nc3c(Nc4c(F)ccc(NS(=O)(=O)c5cccc(Cl)c5Cl)c4F)ncnc3s2)CC1 = > 6.52

We next turn to a different compound, shown below.
Q: Name the recorded pEC50 for `Cc1c(F)cccc1S(=O)(=O)Nc1ccc(F)c(Nc2ncnc3sc(-n4cc(C(=O)N5C6CCC5CN(C)C6)c5ccccc54)nc23)c1F` .
Result: > 6.52

* * *

# experimentalSystem: CRAF (Homo sapiens)
# Construct: fused on or other part: GST tag (N-terminal according to the vendor's product)
# testName: CRAF kinase activity assay (ADP-Glo)
# Assay type: biochemical
# reportedConditions: Table 3; 10 μM ATP, kinase-dead MEK1 substrate
reportedMetric: IC50

Sample answers from the record:
O=S(=O)(Nc1ccc(F)c(Nc2ncnc3sc(-n4cnc5c(N6CCC(O)CC6)cccc54)nc23)c1F)c1cccc(Cl)c1Cl = < 10 nM
Cc1cc2ncn(-c3nc4c(Nc5c(F)ccc(NS(=O)(=O)c6cccc(Cl)c6Cl)c5F)ncnc4s3)c2cc1C = 10 to 50 nM
CC1(O)CCCN(c2cccc3c2ncn3-c2nc3c(Nc4c(F)ccc(NS(=O)(=O)c5cccc(Cl)c5Cl)c4F)ncnc3s2)CC1 (stereo not shown) = 10 to 50 nM
COc1ccc(S(=O)(=O)Nc2ccc(F)c(Nc3ncnc4sc(-n5cnc6c(N)cccc65)nc34)c2F)c(C)c1F = 10 to 50 nM
Cc1c(Cl)cccc1S(=O)(=O)Nc1ccc(F)c(Nc2ncnc3sc(-n4cnc5c(-c6cccnc6)cccc54)nc23)c1F = 10 to 50 nM

Q: Name the recorded IC50 for `COCCOCCOc1cccc2c1ncn2-c1nc2c(Nc3c(F)ccc(NS(=O)(=O)c4cccc(Cl)c4Cl)c3F)ncnc2s1` .
Result: < 10 nM

Q: Name the recorded IC50 for `C[C@]1(CO)CCCN1C(=O)c1cn(-c2nc3c(Nc4c(F)ccc(NS(=O)(=O)c5cccc(Cl)c5Cl)c4F)ncnc3s2)c2ccccc12` .
Result: 10 to 50 nM

Q: Name the recorded IC50 for `O=C(c1cn(-c2nc3c(Nc4c(F)ccc(NS(=O)(=O)c5cccc(Cl)c5Cl)c4F)ncnc3s2)c2ccccc12)N1CC(C(F)F)C1` .
Result: 10 to 50 nM

* * *

Each entry below lists one item and its recorded EC50 value.
# System: NCI-H2122 cells
# testName: Proliferation inhibition, CellTiter-Glo, NCI-H2122
# Assay type: cell-based, human
# reportedConditions: Table D-2; NCI-H2122 (KRAS-G12C), 3 days; read-out: Prolif. (proliferation EC50)
# Procedure: All cancer cell lines (A375, A101D, A2058, RKO, HT29 SK-MEL 30, IPC298, HepG2, HCT-116, Lovo, SW620, SW480, NCI-H358, NCI-H2122, Calu-6, NCIH2087, NCIH1755, NCIH1666 and Mewo) were obtained from ATCC and cultured in RPM1-1640 medium (Gibco) supplemented with 5% heat inactivated fetal bovine serum (FBS, Wisent) at 37° C. under 5% CO2. […] The effect of each compound dilution on the proliferation of cancer cell lines was expressed in % inhibition and calculated as follows. […]

N#CC1(c2cccc3c2ncn3-c2nc3c(Nc4c(F)ccc(NS(=O)(=O)c5cccc(Cl)c5Cl)c4F)ncnc3s2)CC1 [Example 122] = 300 to 3000 nM

We next turn to a different molecule, shown below.
Q: Name the recorded EC50 for Cc1c(F)cccc1S(=O)(=O)Nc1ccc(F)c(Nc2ncnc3sc(-n4cc(C(=O)N5C6CCC5CN(C)C6)c5ccccc54)nc23)c1F [Example 44] .
Result: < 300 nM

* * *

Each entry below lists one item and its recorded IC50 value.
# experimentalSystem: BRAF (Homo sapiens)
# Construct: GST; purchased Millipore Sigma B4062-10UG
# testName: BRAF kinase activity assay (ADP-Glo)
# Format: biochemical
# reportedConditions: Table 3; 10 μM ATP, kinase-dead MEK1 substrate

Sample answers from the record:
CC(C)S(=O)(=O)c1cn(-c2nc3c(Nc4c(F)ccc(NS(=O)(=O)c5cccc(Cl)c5Cl)c4F)ncnc3s2)c2ccccc12 = 1 to 10 nM
O=S(=O)(Nc1ccc(F)c(Nc2ncnc3sc(-n4ccc5ncccc54)nc23)c1F)c1cccc(Cl)c1Cl = 1 to 10 nM
Cc1c(F)cccc1S(=O)(=O)Nc1ccc(F)c(Nc2ncnc3sc(-n4cc(C(=O)N5C6CCC5CN(C)C6)c5ccccc54)nc23)c1F = < 1 nM
CC(C)(O)[C@@H]1CCN(C(=O)c2cn(-c3nc4c(Nc5c(F)ccc(NS(=O)(=O)c6cccc(Cl)c6Cl)c5F)ncnc4s3)c3ccccc23)C1 = 1 to 10 nM
O=S(=O)(Nc1ccc(F)c(Nc2ncnc3sc(-n4cnc5c(CCO)cccc54)nc23)c1F)c1cccc(Cl)c1Cl = < 1 nM

Q: Name the recorded IC50 for `O=S(=O)(Nc1ccc(F)c(Nc2ncnc3sc(-n4cnc5cc(Cl)c(Cl)cc54)nc23)c1F)c1cccc(Cl)c1Cl` .
Result: 1 to 10 nM

These data points were gathered from patent US20260137697A1.
